Cited source for all entries: the supplement of paper PMC11208160

Please go through the items and note down their recombinant UMI read abundance (log10).
# experimentNotes: recombinant UMI read abundance after kanamycin selection (control-corrected) (log10(CPM+1)); higher = more efficient recombination; extreme values may be limits of the assay; sequences stand for … in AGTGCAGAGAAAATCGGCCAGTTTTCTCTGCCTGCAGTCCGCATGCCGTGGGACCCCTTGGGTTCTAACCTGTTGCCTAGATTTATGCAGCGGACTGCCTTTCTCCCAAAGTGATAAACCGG…AGGTTGGTTTCACT; site = the 11-nt donor;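 also: IS621 bridge recombinase in Escherichia coli cells against a fixed T5 target plasmid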
Numbers only.

ATCCAGGCATGGACCGGTTTTCCCGGTAATCCGTATTTGAG (site ATCCAAGCTCT) = 0.547
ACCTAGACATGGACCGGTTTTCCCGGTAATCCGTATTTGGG (site ACCTAGTCTCC) = 0.0195
AACCGTCCATGGACCGGTTTTCCCGGTAATCCGTATTTGTT (site AACCGTCCTAC) = 0.0168
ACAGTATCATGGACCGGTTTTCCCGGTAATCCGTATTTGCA (site AGAGTATCTTG) = 2.46
CCATCTACATGGACCGGTTTTCCCGGTAATCCGTATTTGTG (site CCATCTACTCA) = 0.0215
ACAAATCCATGGACCGGTTTTCCCGGTAATCCGTATTTGAC (site ACACATCCTGT) = 0
CCAGTATCATGGACCGGTTTTCCCGGTAATCCGTATTTGAA (site CTAGTATCTGT) = 0
ACAGTGTCATGGACCGGTTTTCCCGGTAATCCGTATTTGCA (site ACAGTATCTTG) = 3.35
CTAGAAACATGGACCGGTTTTCCCGGTAATCCGTATTTGAC (site CTAGTATCTGT) = 0.00659
GATAGGACATGGACCGGTTTTCCCGGTAATCCGTATTTGAC (site GATCGGACTGT) = 0.114

Take each entry in turn and give its recombinant UMI read abundance (log10).
1. GTTCTCACATGGACCGGTTTTCCCGGTAATCCGTATTTGGT (site GTTCTCACTAC)
2. CTGGAACCATGGACCGGTTTTCCCGGTAATCCGTATTTGAT (site CGGGAACCTAT)

[0.234, 0]

Take each entry in turn and give its recombinant UMI read abundance (log10).
1. AACTATTCATGGACCGGTTTTCCCGGTAATCCGTATTTGTC (site AACTATTCTGA)
2. CACGGCCCATGGACCGGTTTTCCCGGTAATCCGTATTTGCT (site CACGGCCCTAA)
3. CGAACATCATGGACCGGTTTTCCCGGTAATCCGTATTTGCC (site CGATCATCTAG)

1: 0.671; 2: 0.0432; 3: 0

====

Please go through the items and note down their recombinant UMI read abundance (log10).
# experimentNotes: recombinant UMI read abundance after kanamycin selection (control-corrected) (log10(CPM+1)); higher = more efficient recombination; extreme values may be limits of the assay; sequences stand for … in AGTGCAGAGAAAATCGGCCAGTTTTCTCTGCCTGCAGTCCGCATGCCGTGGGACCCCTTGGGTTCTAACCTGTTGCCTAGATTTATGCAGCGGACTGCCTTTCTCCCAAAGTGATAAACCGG…AGGTTGGTTTCACT; site = the 11-nt donor
Numbers only.

Please review the entries below; each comes with its answer.
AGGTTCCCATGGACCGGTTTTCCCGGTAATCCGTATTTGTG (site AGGTTACCTCA) = 0.00985
ACTGTGTCATGGACCGGTTTTCCCGGTAATCCGTATTTGAC (site AGTGTGTCTGT) = 0
ACTCGGTCATGGACCGGTTTTCCCGGTAATCCGTATTTGTT (site ACTCGGTCTAA) = 0.936

Take each entry in turn and give its recombinant UMI read abundance (log10).
1. CTCTACCCATGGACCGGTTTTCCCGGTAATCCGTATTTGCT (site CTCTACCCTAG)
2. CAAGTAACATGGACCGGTTTTCCCGGTAATCCGTATTTGGG (site CAAGTAACTCC)
3. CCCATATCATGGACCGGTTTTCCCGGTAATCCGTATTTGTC (site CCCACATCTGA)
4. AGCGCAGCATGGACCGGTTTTCCCGGTAATCCGTATTTGCG (site AGCGCAGCTCG)
5. CAAGCGCCATGGACCGGTTTTCCCGGTAATCCGTATTTGTC (site CAAGCGCCTCA)

1: 1.74; 2: 1.53; 3: 0; 4: 1.01; 5: 0.42

Take each entry in turn and give its recombinant UMI read abundance (log10).
1. TTTGCCGCATGGACCGGTTTTCCCGGTAATCCGTATTTGCT (site TTTGCCGCTAG)
2. TTCAGCTCATGGACCGGTTTTCCCGGTAATCCGTATTTGGT (site TTCAGCTCTAC)
3. ATTTATTCATGGACCGGTTTTCCCGGTAATCCGTATTTGAG (site ATTTATTCTCT)
4. TTCCGCGCATGGACCGGTTTTCCCGGTAATCCGTATTTGCC (site TTCCGCGCTGG)
5. ACTGTACCATGGACCGGTTTTCCCGGTAATCCGTATTTGCA (site ACAGTATCTTG)
6. GGAGTGGCATGGACCGGTTTTCCCGGTAATCCGTATTTGGA (site GGAGTGGCTGC)

1: 0.548; 2: 0.00826; 3: 1.61; 4: 0.632; 5: 0.00951; 6: 0

Take each entry in turn and give its recombinant UMI read abundance (log10).
1. GTATGGCCATGGACCGGTTTTCCCGGTAATCCGTATTTGCA (site GAATGGCCTTG)
2. GACAAACCATGGACCGGTTTTCCCGGTAATCCGTATTTGGC (site GACAAACCTTC)
3. CTAATAACATGGACCGGTTTTCCCGGTAATCCGTATTTGGA (site CTACTAACTTC)
4. CCCAGTCCATGGACCGGTTTTCCCGGTAATCCGTATTTGCA (site CCCTGTCCTTG)
5. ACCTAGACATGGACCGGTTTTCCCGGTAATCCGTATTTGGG (site ACCCAGACTCC)
6. CAATTCACATGGACCGGTTTTCCCGGTAATCCGTATTTGCT (site CAATTCTCTAG)
7. AAGGTCACATGGACCGGTTTTCCCGGTAATCCGTATTTGAG (site AAGGTCACTCT)

1. 0
2. 0
3. 0.337
4. 0.0169
5. 0.00611
6. 0
7. 1.55

Take each entry in turn and give its recombinant UMI read abundance (log10).
1. CATGGCACATGGACCGGTTTTCCCGGTAATCCGTATTTGGA (site CATGGCACTTC)
2. GCATAGACATGGACCGGTTTTCCCGGTAATCCGTATTTGCC (site GGATAGACTGG)
3. TGTTAGGCATGGACCGGTTTTCCCGGTAATCCGTATTTGGT (site TGTTAGGCTAC)
4. GGATCACCATGGACCGGTTTTCCCGGTAATCCGTATTTGCT (site GGATCACCTAG)
5. TTCGCGGCATGGACCGGTTTTCCCGGTAATCCGTATTTGCT (site TTCGCGGCTAG)
6. CCATAAACATGGACCGGTTTTCCCGGTAATCCGTATTTGAA (site CCATAAACTTT)
7. CAATGCTCATGGACCGGTTTTCCCGGTAATCCGTATTTGGA (site CAATGCTCTTA)
8. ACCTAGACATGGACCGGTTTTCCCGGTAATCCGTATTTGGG (site CCCTAGACTCC)

1: 0.46; 2: 0; 3: 0.273; 4: 0.0128; 5: 0.587; 6: 1.22; 7: 2.13; 8: 0.00828

Take each entry in turn and give its recombinant UMI read abundance (log10).
1. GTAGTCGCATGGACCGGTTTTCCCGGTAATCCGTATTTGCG (site GTAGCCGCTCG)
2. CGCACCCCATGGACCGGTTTTCCCGGTAATCCGTATTTGAC (site CGCACCCCTGT)
3. GTTACGTCATGGACCGGTTTTCCCGGTAATCCGTATTTGTA (site GTTACGTCTTA)
4. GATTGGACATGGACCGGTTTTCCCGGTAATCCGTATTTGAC (site GATTGGACTGG)
5. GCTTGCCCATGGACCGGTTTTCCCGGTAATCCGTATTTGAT (site GCTTGCCCTAA)
6. CGGAAACCATGGACCGGTTTTCCCGGTAATCCGTATTTGTT (site CGGAACCCTAA)
7. TGGGAGACATGGACCGGTTTTCCCGGTAATCCGTATTTGCA (site AGGAAGACTTG)

1: 0.584; 2: 1.43; 3: 1.22; 4: 0; 5: 0.00772; 6: 0.00618; 7: 0.261
